target: ENL YEATS domain (association with H3K27cr) (Homo sapiens, UniProt Q03111); experiment: biochemical; conditions: ENL (YEATS)-H3K27cr HTRF (IC50, μM), Table 1
readout-type: IC50 (µM)

[
  {
    "molecule": "CC1(C)CCN(CCNS(=O)(=O)Nc2cccc(-c3cn4cc(C(=O)NC5CCC5)ccc4n3)c2)CC1 [Compound 101]",
    "readout-units": "µM",
    "IC50": 0.062
  },
  {
    "molecule": "O=C(NC1CCCC(O)C1)c1ccc2nc(-c3ccccc3)cn2c1 (centres unmarked) [Compound 16]",
    "readout-units": "µM",
    "IC50": 20
  }
]

I. CC(C)NC(=O)c1ccc2nc(-c3ccccc3C#N)cn2c1 [Compound 89]
II. COC1CCN(CCNS(=O)(=O)Nc2cccc(-c3cn4cc(C(=O)NC5CCC5)ccc4n3)c2)CC1 [Compound 94]
III. CNS(=O)(=O)Nc1cccc(-c2cn3cc(C(=O)NC(C)C)ccc3n2)c1 [Compound 52]
Put these in order: smallest IC50 first, largest last. # format: label list in the order the request specifies II, III, I

====

target: ENL YEATS domain (association with H3K27cr) (Homo sapiens, UniProt Q03111); assay: biochemical; settings: ENL (YEATS)-H3K27cr HTRF (IC50, μM), Table 1
readout-type: IC50 (µM)

[
  {
    "molecule": "CC(C)NC(=O)c1ccc2nc(-c3cccc(NS(=O)(=O)NCCCCCC#N)c3)cn2c1",
    "system-under-test": "ENL YEATS domain (association with H3K27cr) (Homo sapiens, UniProt Q03111)",
    "readout-type": "IC50",
    "reported": 0.55
  },
  {
    "molecule": "O=C(CCN1CCNCC1)Nc1cccc(-c2cn3cc(C(=O)NC4CCC4)ccc3n2)c1",
    "system-under-test": "ENL YEATS domain (association with H3K27cr) (Homo sapiens, UniProt Q03111)",
    "readout-type": "IC50",
    "reported": 0.261
  },
  {
    "molecule": "C#CC1CC(NC(=O)c2ccc3nc(-c4ccccc4)cn3c2)C1 (centres unmarked)",
    "system-under-test": "ENL YEATS domain (association with H3K27cr) (Homo sapiens, UniProt Q03111)",
    "readout-type": "IC50",
    "reported": 10
  },
  {
    "molecule": "CC(C)NC(=O)c1ccc2nc(-c3cccc(NS(=O)(=O)NCCCN4CCCC4=O)c3)cn2c1",
    "system-under-test": "ENL YEATS domain (association with H3K27cr) (Homo sapiens, UniProt Q03111)",
    "readout-type": "IC50",
    "reported": 0.88
  },
  {
    "molecule": "O=C(NC1CCC1)c1ccc2nc(-c3cccc(S(=O)(=O)NCCCN4CCCCC4)c3)cn2c1",
    "system-under-test": "ENL YEATS domain (association with H3K27cr) (Homo sapiens, UniProt Q03111)",
    "readout-type": "IC50",
    "reported": 0.84
  }
]

A. O=C(N[C@@H]1CC[C@H]1O)c1ccc2nc(-c3ccccc3)cn2c1
B. CC(C)NC(=O)c1ccc2nc(-c3ccc([N+](=O)[O-])cc3)cn2c1
C. CC(C)NC(=O)c1ccc2nc(-c3cccc(NS(=O)(=O)NCCOCCO)c3)cn2c1
Order the 3 molecules from highest to lowest IC50. # format: label list in the order the request specifies A, B, C

====

Target: ENL YEATS domain (association with H3K27cr) (Homo sapiens)
Sequence (Q03111 1-148): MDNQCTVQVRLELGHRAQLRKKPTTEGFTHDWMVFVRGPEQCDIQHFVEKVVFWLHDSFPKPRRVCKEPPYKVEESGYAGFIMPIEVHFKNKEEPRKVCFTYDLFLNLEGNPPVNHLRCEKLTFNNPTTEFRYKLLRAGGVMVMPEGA
Assay: biochemical
Details: ENL (YEATS)-H3K27cr HTRF (IC50, μM), Table 2
readout-type: IC50 (µM)

[
  {
    "compound": "O=C(NC1CCCC(O)C1)c1ccc2nc(-c3ccccc3)cn2c1 (centres unmarked)",
    "readout-units": "µM",
    "IC50": 20
  },
  {
    "compound": "O=C(N[C@@H]1CC[C@H]1O)c1ccc2nc(-c3ccccc3)cn2c1",
    "readout-units": "µM",
    "IC50": 21
  },
  {
    "compound": "CC(C)NC(=O)c1ccc2nc(-c3cccc(NS(=O)(=O)NC[C@H]4CC[C@H](C(=O)O)CC4)c3)cn2c1",
    "readout-units": "µM",
    "IC50": 0.32
  },
  {
    "compound": "CC(C)NC(=O)c1ccc2nc(-c3ccc([N+](=O)[O-])cc3)cn2c1",
    "readout-units": "µM",
    "IC50": 2.8
  },
  {
    "compound": "C#CC1CC(NC(=O)c2ccc3nc(-c4ccccc4)cn3c2)C1 (centres unmarked)",
    "readout-units": "µM",
    "IC50": 10
  }
]

I. O=C(NC1CCC1)c1ccc2nc(-c3cccc(NS(=O)(=O)NCCN4CCCCC4=O)c3)cn2c1
II. O=C(NC1CCC1)c1ccc2nc(-c3cccc(NS(=O)(=O)NCC(=O)N4CCCCC4)c3)cn2c1
III. COC(=O)[C@H]1CCCN1S(=O)(F)=Nc1cccc(-c2cn3cc(C(=O)NC(C)C)ccc3n2)c1 (some centres unmarked)
IV. O=C(NC1CCC(O)CC1)c1ccc2nc(-c3ccccc3)cn2c1 (centres unmarked) [Compound 31]
V. O=C(NC1Cc2ccccc21)c1ccc2nc(-c3ccccc3)cn2c1 (centres unmarked)
Put these in order: smallest IC50 first, largest last. # format: label list in the order the request specifies II, I, III, V, IV
(II: 0.101 µM, I: 0.21 µM, III: 0.95 µM, V: 3.03 µM, IV: 7 µM)

I. CC(C)NC(=O)c1ccc2nc(-c3cccc(NS(=O)(=O)NCCCN4CCCC4)c3)cn2c1
II. CC(C)NC(=O)c1ccc2nc(-c3ccccc3C#N)cn2c1
Given the listed records, identify the one among I and II with higher IC50. Give the chosen item's label as your response. II
(II: 16.7 µM, I: 0.34 µM)

a. CC(C)NC(=O)c1ccc2nc(-c3cccc(NS(=O)(=O)NCCCCCCC(=O)O)c3)cn2c1
b. Cc1ccc(-c2cn3cc(C(=O)NC4CCC4)ccc3n2)cc1
c. CC(C)NC(=O)c1ccc2nc(-c3ccc(C#N)cc3)cn2c1
Order the 3 compounds from highest to lowest IC50. # format: label list in the order the request specifies c, b, a
(c: 2.9 µM, b: 1.17 µM, a: 0.36 µM)

====

biological target: BRD4 bromodomain 1 (BD1) (Homo sapiens, UniProt O60885); construct: Selectivity against BRD4 bromodomain 1 (BD1), measured by HTRF; His; purchased Cayman 11720; assay: BRD4 (BD1)-H4 tetra-acetylated HTRF histone-binding assay; settings: Table 1
pIC50: −log10 of the molar value.
readout-type: pIC50

[
  {
    "compound-smiles": "CC(C)NC(=O)c1ccc2nc(-c3ccccc3)cn2c1",
    "pIC50": "< 4.30"
  },
  {
    "compound-smiles": "Cc1ccc(-c2cn3cc(C(=O)NC(C)C)ccc3n2)cc1C",
    "pIC50": "< 4.30"
  },
  {
    "compound-smiles": "COc1cccc(-c2cn3cc(C(=O)NC(C)C)ccc3n2)c1",
    "pIC50": "< 4.30"
  }
]

Output pIC50 of `CC(C)NC(=O)c1ccc2nc(-c3ccc(C(F)(F)F)cc3)cn2c1` < 4.30

Output pIC50 of `CC(C)NC(=O)c1ccc2nc(-c3cccc(C#N)c3)cn2c1` < 4.30

====

biological target: ENL YEATS domain (association with H3K27cr) (Homo sapiens, UniProt Q03111); assay: biochemical; conditions: ENL (YEATS)-H3K27cr HTRF (IC50, μM), Table 1
readout-type: IC50 (µM)

[
  {
    "compound": "CC(C)NC(=O)c1ccc2nc(-c3cccc(NS(=O)(=O)NCCCN4CCCC4)c3)cn2c1",
    "IC50 / µM": 0.34
  }
]

A. CC(C)NC(=O)c1ccc2nc(-c3cccc(NS(=O)(=O)NCCCCO)c3)cn2c1 [Compound 43]
B. CC(C)NC(=O)c1ccc2nc(-c3ccccc3)cn2c1
Please let me know which one, A or B , has a lower measured IC50 value. Give the chosen item's label as your response. A

I. CC(C)NC(=O)c1ccc2nc(-c3cccc(NS(=O)(=O)NCCCC(=O)O)c3)cn2c1
II. CCc1ccc(-c2cn3cc(C(=O)NC4CC4)ccc3n2)cc1
Given the listed records, identify the one among I and II with higher IC50. Give the chosen item's label as your response. II
(II: 5 µM, I: 0.69 µM)

1. CC(C)NC(=O)c1ccc2nc(-c3cccc(NS(=O)(=O)NCCC(=O)O)c3)cn2c1
2. CC(C)NC(=O)c1ccc2nc(-c3cccc(NS(=O)(=O)NCc4ccc(O)cc4)c3)cn2c1
3. CC(C)NC(=O)c1ccc2nc(-c3cccc([N+](=O)[O-])c3)cn2c1
Order the 3 compounds from highest to lowest IC50. # format: label list in the order the request specifies 3, 1, 2

Sourced from patent US20220274980A1
